- assay.system: Beta-3 Adrenergic Receptor (Homo sapiens (Human))
- Sequence (P13945 whole entry, species assumed): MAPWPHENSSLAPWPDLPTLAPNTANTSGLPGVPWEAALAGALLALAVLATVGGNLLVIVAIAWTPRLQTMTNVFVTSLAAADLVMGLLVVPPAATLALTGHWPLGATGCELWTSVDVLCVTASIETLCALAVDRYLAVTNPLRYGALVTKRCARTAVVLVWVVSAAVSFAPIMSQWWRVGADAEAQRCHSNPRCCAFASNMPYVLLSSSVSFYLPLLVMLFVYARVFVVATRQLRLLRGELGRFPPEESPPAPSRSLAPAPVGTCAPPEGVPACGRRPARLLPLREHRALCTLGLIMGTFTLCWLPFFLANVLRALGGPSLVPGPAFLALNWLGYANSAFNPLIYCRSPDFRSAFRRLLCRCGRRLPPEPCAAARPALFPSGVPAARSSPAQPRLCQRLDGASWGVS
- protocol.notes: Homogeneous Time-Resolved Fluorescence (HTRF) cAMP antagonist assay, IC50 determination
- study.conditions: CHO-K1 cells stably expressing recombinant receptor, isoproterenol at EC90
pIC50: −log10 of the molar value.
Assign YES to entries whose pIC50 meets or exceeds 7; assign NO to the rest.

Would you please look over these solved cases?
| compound | class.label |
| --- | --- |
| CNS(=O)(=O)c1cccc(OC[C@@H](O)CNC2COC3(CCN(S(=O)(=O)c4cccc(Cl)c4C)CC3)C2)c1 (stereo partly shown) | YES |
| CNS(=O)(=O)c1cccc(OC[C@@H](O)CNC2COC3(CCN(S(=O)(=O)c4cccc(C)c4C)CC3)C2)c1 (stereo partly shown) | YES |
| CCNS(=O)(=O)c1cccc(OC[C@@H](O)CNC2COC3(CCN(S(=O)(=O)c4ccc(OC)c(C)c4)CC3)C2)c1 (stereo partly shown) | NO |
| CNS(=O)(=O)c1cccc(OC[C@@H](O)CNC2COC3(CCN(S(=O)(=O)c4cncc(-c5cnn(C)c5)c4)CC3)C2)c1 (stereo partly shown) | YES |
| CNS(=O)(=O)c1cccc(OC[C@@H](O)CNC2COC3(CCN(S(=O)(=O)c4ccc(C)c(C)c4)CC3)C2)c1 (stereo partly shown) | YES |

Ask: Kindly determine if pIC50 recorded for CNS(=O)(=O)c1cccc(OC[C@@H](O)CNC2COC3(CCN(S(=O)(=O)c4ccc(F)cc4F)CC3)C2)c1 (stereo partly shown) is above or exactly 7.
Reply: YES

Ask: Please tell me: is the compound CCn1cc(S(=O)(=O)N2CCC3(CC2)C[C@@H](NC[C@H](O)COc2cccc(S(N)(=O)=O)c2)CO3)c(=O)c2ccccc21 at or over 7 in terms of pIC50?
Reply: YES

Ask: Hi team, for CNS(=O)(=O)c1cccc(OC[C@@H](O)CN[C@H]2COC3(CCN(S(=O)(=O)c4cnc5ccn(C)c5c4)CC3)C2)c1 , is the recorded pIC50 at or above 7?
Reply: YES

Ask: For this compound, is measured pIC50 7 or higher? C[C@@H](CO)NS(=O)(=O)c1cccc(OC[C@@H](O)CN[C@H]2COC3(CCN(S(=O)(=O)c4cnc5c(c4)N(C)CCO5)CC3)C2)c1
Reply: NO

Ask: Hi, just wondering whether CNS(=O)(=O)c1cccc(OC[C@@H](O)CN[C@H]2COC3(CCN(S(=O)(=O)c4cnc5c(c4)N(C)CC(C)(C)O5)CC3)C2)c1 shows pIC50 of 7 or higher.
Reply: YES
